target_under_test: mTOR/GbL/Raptor (mTORC1) (Homo sapiens, UniProt P42345)
protocol_text: mTOR/GbL/Raptor (mTORC1) ELISA assay
study_conditions: phosphorylation of 4E-BP1; 0.2 nM mTORC1, 10 μM ATP; read-out: IC50 in this assay (mTORC1 ELISA)
Quick reference: IC50 of the listed items.

- molecule: "c1ccc2c(N3CCOc4ccc(-c5ccc6nc[nH]c6c5)cc4C3)ncnc2c1 [Example 123]"
  IC50: "50 to 250 nM"

Prompt line: Provide the reported IC50 (system: mTOR/GbL/Raptor (mTORC1) (Homo sapiens, UniProt P42345)) for Cc1nc2ccc(-c3ccc4c(c3)CN(c3ncnc(C)c3Cc3ccc(F)cc3)CCO4)cc2[nH]1 [Example 79]
Response line: ≤ 10 nM

Prompt line: Provide the reported IC50 (system: mTOR/GbL/Raptor (mTORC1) (Homo sapiens, UniProt P42345)) for Cc1nc2ncc(-c3ccc4c(c3)CN(c3ncnc5c3CC[C@@H](C)C5)CCO4)cc2[nH]1 [Example 559]
Response line: 10 to 50 nM

Prompt line: Provide the reported IC50 (system: mTOR/GbL/Raptor (mTORC1) (Homo sapiens, UniProt P42345)) for COc1ccc2c(N3CCOc4ccc(-c5ccc6nc(C)[nH]c6c5)cc4C3)nc(C)nc2c1 [Example 258]
Response line: 250 to 1000 nM

====

Quick reference: IC50 of the listed items.
target_under_test: mTOR/GbL/Raptor (mTORC1) (Homo sapiens)
protocol_text: mTOR/GbL/Raptor (mTORC1) ELISA assay
study_conditions: phosphorylation of 4E-BP1; 0.2 nM mTORC1, 10 μM ATP; read-out: IC50 in this assay (mTORC1 ELISA)

- smiles_text: "Cc1nc2ncc(-c3ccc4c(c3)CN(c3nc(CNC(C)C)nc5c3CC(C)(C)CC5)CCO4)cc2[nH]1"
  value_reported: "≤ 10 nM"
- smiles_text: "CN(C)S(=O)(=O)c1cncc(-c2ccc3c(c2)CN(c2ncnc4c2CC(C)(C)CC4)CCO3)c1"
  value_reported: "250 to 1000 nM"
- smiles_text: "COc1ccc(-c2ccc3c(c2)CN(c2nc(CN(C)C)nc4c2CC(C)(C)CC4)CCO3)cc1OC"
  value_reported: "250 to 1000 nM"

Here is the next item to consider.
Prompt line: Provide the reported IC50 (system: mTOR/GbL/Raptor (mTORC1) (Homo sapiens)) for Cc1nc2cc(-c3ccc4c(c3)CN(c3nc(CNCCF)nc(C)c3C(C)C)CCO4)ccc2[nH]1
Response line: 10 to 50 nM

====

target_under_test: mTOR/GbL/Raptor (mTORC1) (Homo sapiens, UniProt P42345)
protocol_text: mTOR/GbL/Raptor (mTORC1) ELISA assay
study_conditions: phosphorylation of 4E-BP1; 0.2 nM mTORC1, 10 μM ATP; read-out: IC50 in this assay (mTORC1 ELISA)
recorded_metric: IC50

- molecule: "Cc1nc2ccc(-c3ccc4c(c3)CN(c3ccccn3)CCO4)cc2[nH]1"
  IC50: "≥ 2000 nM"

Prompt line: # return recorded IC50 for entry CNC(=O)c1ccc(-c2ccc3c(c2)CN(c2nc(CN(C)C)nc4c2CC(C)(C)CC4)CCO3)cc1
Response line: 50 to 250 nM

Prompt line: # return recorded IC50 for entry Cc1ncnc(N2CCOc3ccc(-c4cnc(N)s4)cc3C2)c1Cc1ccc(F)cc1
Response line: ≤ 10 nM

Prompt line: # return recorded IC50 for entry CCNc1nc(N2CCOc3ccc(-c4ccc5nc(NCC)[nH]c5c4)cc3C2)c2ccccc2n1
Response line: 250 to 1000 nM

Prompt line: # return recorded IC50 for entry COc1cc2ncnc(N3CCOc4ccc(-c5cnc6nc(N)[nH]c6c5)cc4C3)c2cc1OC
Response line: 10 to 50 nM

Prompt line: # return recorded IC50 for entry Cc1nc2ncc(-c3ccc4c(c3)CN(c3ncnc5c3CCC(C(F)(F)F)C5)CCO4)cc2[nH]1 (centres unmarked)
Response line: 10 to 50 nM

Prompt line: # return recorded IC50 for entry CC1(C)CCc2ncnc(N3CCOc4ccc(-c5cnc(N)c(S(=O)(=O)NCCCN)c5)cc4C3)c2C1
Response line: 10 to 50 nM

Prompt line: # return recorded IC50 for entry Cc1nc2ncc(-c3ccc4c(c3)CN(c3nc(CN5CCCCC5)nc5c3CC(C)(C)CC5)CCO4)cc2[nH]1
Response line: 50 to 250 nM
